Assayed Target: Gab2a 12mer peptide (Homo sapiens, UniProt Q9UQC2)
Sequence (Q9UQC2 whole entry): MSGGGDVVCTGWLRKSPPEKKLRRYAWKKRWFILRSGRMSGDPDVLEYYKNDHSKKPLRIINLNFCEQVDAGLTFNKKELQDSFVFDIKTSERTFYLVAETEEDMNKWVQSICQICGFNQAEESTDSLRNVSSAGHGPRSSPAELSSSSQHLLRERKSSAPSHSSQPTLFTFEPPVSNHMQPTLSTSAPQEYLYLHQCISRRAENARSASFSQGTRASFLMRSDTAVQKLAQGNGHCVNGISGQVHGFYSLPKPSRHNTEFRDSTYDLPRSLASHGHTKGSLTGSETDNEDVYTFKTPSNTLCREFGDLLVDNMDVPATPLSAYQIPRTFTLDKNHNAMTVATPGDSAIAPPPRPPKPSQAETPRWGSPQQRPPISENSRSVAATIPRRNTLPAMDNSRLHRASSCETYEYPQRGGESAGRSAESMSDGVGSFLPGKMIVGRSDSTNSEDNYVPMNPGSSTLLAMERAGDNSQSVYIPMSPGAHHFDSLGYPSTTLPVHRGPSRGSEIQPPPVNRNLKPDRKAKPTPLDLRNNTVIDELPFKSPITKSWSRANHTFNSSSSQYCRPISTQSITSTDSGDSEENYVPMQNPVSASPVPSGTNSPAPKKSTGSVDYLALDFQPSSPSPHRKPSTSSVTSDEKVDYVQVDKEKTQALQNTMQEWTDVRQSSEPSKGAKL
Assay Protocol: SPR
pKd: −log10 of the molar value.

Binder: Grb2 SH3C (protein) QQPTYVQALFDFDPQEDGELGFRRGDFIHVMDNSDPNWWKGACHGQTGMFPRNYVTPVNR
pKd: 3.79
